From: paper PMC8228141

IC50: recorded values
assay: Cytotoxicity against mammalian control cells; assay type: cell-based, rat; conditions: rat, L6 rat skeletal myoblast cells; L6 cell line; mean of n = 2 (fluctuation range) or * n = 3 (SD); read-out: Cytotox. IC50

{"compound": "CN[C@H]1CC=C2CC3=CC[C@]4(C)[C@@H]([C@H](C)NC(C)=O)CC[C@@]4(C)[C@@H]3CC[C@H]2C1(C)C", "unit_descriptor": "µg/mL", "IC50": 16.9}
{"compound": "CN[C@H]1CC=C2CC3=CC[C@@]4(C)[C@@](C)(CC[C@]4(O)[C@H](C)O)[C@@H]3CC[C@H]2C1(C)C [Compound 25, 17,20-dihydroxybuxadine-M]", "unit_descriptor": "µg/mL", "IC50": 44.5}
{"compound": "CC(=O)O[C@@H]1C[C@@]2(C)[C@@H]3CC[C@@H]4C(=CC[C@H](N(C)C)C4(C)C)CC3=CC[C@]2(C)[C@H]1[C@H](C)NC(=O)c1ccccc1", "unit_descriptor": "µg/mL", "IC50": 27.5}

* * *

SI Pf (selectivity index): recorded values
tested on: Plasmodium falciparum (Pf) (intraerythrocytic forms, NF54 strain); assay: In vitro antiplasmodial activity; format: cell-based; conditions: cytotoxicity L6 vs Pf

{"molecule": "C/C=C(\\C)C(=O)O[C@@H]1C[C@@]2(C)[C@@H]3C=C[C@H]4[C@](C)(CO)[C@@H](N(C)C)CC[C@@]45C[C@@]35CC[C@]2(C)[C@H]1[C@H](C)N(C)C [Compound 4, O-tigloylcyclomicrophylline-A]", "SI Pf (selectivity index)": 34}
{"molecule": "CC(=O)O[C@@H]1C[C@@]2(C)[C@@H]3CC[C@@H]4C(=CC[C@H](N(C)C)C4(C)C)CC3=CC[C@]2(C)[C@H]1[C@H](C)NC(=O)c1ccccc1 [Compound 23, N-benzoyl-O-acetylbuxadine-E]", "SI Pf (selectivity index)": 7}
{"molecule": "CN[C@H]1CC=C2CC3=CC[C@]4(C)[C@@H]([C@H](C)NC(C)=O)CC[C@@]4(C)[C@@H]3CC[C@H]2C1(C)C [Compound 24, N20-acetylbuxadine-G]", "SI Pf (selectivity index)": 7}
{"molecule": "C/C=C(\\C)C(=O)O[C@@H]1C[C@@]2(C)[C@@H]3C=C[C@H]4[C@](C)(CO)[C@@H](N(C)C)CC[C@@]45C[C@@]35CC[C@]2(C)[C@H]1[C@H](C)NC [Compound 3, O-tigloylcyclomicrophylline-B]", "SI Pf (selectivity index)": 72}
{"molecule": "CN[C@H]1CC=C2CC3=CC[C@@]4(C)[C@@](C)(CC[C@]4(O)[C@H](C)O)[C@@H]3CC[C@H]2C1(C)C [Compound 25, 17,20-dihydroxybuxadine-M]", "SI Pf (selectivity index)": 12}
{"molecule": "CN[C@@H](C)[C@H]1CC[C@@]2(C)[C@@H]3CC[C@H]4C(C)(C)[C@@H](NC)[C@H](OC(=O)c5ccccc5)C[C@@]45C[C@@]35CC[C@]12C [Compound 8, O-benzoyl-cycloprotobuxoline-D]", "SI Pf (selectivity index)": 74}
{"molecule": "CN[C@@H](C)[C@H]1[C@H](OC(=O)c2ccccc2)C[C@@]2(C)[C@@H]3C=C[C@H]4[C@](C)(CO)[C@@H](N(C)C)CC[C@@]45C[C@@]35CC[C@]12C [Compound 7, Cyclomicrophyllidine-B]", "SI Pf (selectivity index)": 145}
{"molecule": "C[C@@H]([C@H]1[C@H](O)C[C@@]2(C)[C@@H]3CC[C@@H]4[C@@]5(CCC(=O)[C@@]4(C)CO)C[C@@]35CC[C@]12C)N(C)C [Compound 11, 29-hydroxy-cyclomikuranine-L]", "SI Pf (selectivity index)": 49}
{"molecule": "C=C1C2CC[C@@H]3[C@]4(CC[C@]5(C)[C@@H](C(C)=O)[C@H](O)C[C@@]35C)C[C@]24CC[C@@H]1NC (stereo partly drawn) [Compound 17, Cyclomicrobuxinine]", "SI Pf (selectivity index)": 7}
